- target_entity: standard panel of 30 kinases
- test_protocol: Kinase selectivity panel (SelectScreen Z'-LYTE), number of kinases inhibited
- Type: biochemical, human
- measurement_conditions: count out of 30 kinases
Overview of recorded # kinases inhibited >50% @ 1 μM for various molecules

• C[C@@H]1Cc2nn(C)c(-c3ccccc3)c2-c2nc(Nc3ccn(CCN4CCN(C)CC4)n3)ncc21 = 6/30
• CC(O)CN1CCN(CCn2ccc(Nc3ncc4c(n3)-c3c(nn(C)c3-c3ccccc3)C[C@H]4C)n2)CC1 (stereo partly shown) = 6/30
• C[C@@H]1Cc2nn(C)c(-c3ccccc3)c2-c2nc(Nc3ccn(CCN4CCN(CC5CCCO5)CC4)n3)ncc21 (stereo partly shown) = 6/30

Input: Print standard panel of 30 kinases # kinases inhibited >50% @ 1 μM for C[C@@H]1Cc2nn(C)c(-c3ccccc3)c2-c2nc(Nc3ccn(CCN4CCN(CC(=O)OC5CCOCC5)CC4)n3)ncc21 .
Output: 3/30

Input: Print standard panel of 30 kinases # kinases inhibited >50% @ 1 μM for C[C@@H]1Cc2nn(C)c(-c3ccccc3)c2-c2nc(Nc3ccn(CCN4CCOCC4)n3)ncc21 .
Output: 7/30

Input: Print standard panel of 30 kinases # kinases inhibited >50% @ 1 μM for C[C@@H]1Cc2nn(C)c(-c3ccccc3)c2-c2nc(Nc3ccn(CCN4CCN(CC(C)(C)O)CC4)n3)ncc21 .
Output: 6/30

Input: Print standard panel of 30 kinases # kinases inhibited >50% @ 1 μM for COCCN1CCN(CCn2ccc(Nc3ncc4c(n3)-c3c(nn(C)c3-c3ccccc3)C[C@H]4C)n2)CC1 .
Output: 4/30

---

- target_entity: ACVR1B (ALK4) (Homo sapiens, UniProt P36896)
- Construct: purchased Life Technologies PV4312
- Sequence (P36896 24-505): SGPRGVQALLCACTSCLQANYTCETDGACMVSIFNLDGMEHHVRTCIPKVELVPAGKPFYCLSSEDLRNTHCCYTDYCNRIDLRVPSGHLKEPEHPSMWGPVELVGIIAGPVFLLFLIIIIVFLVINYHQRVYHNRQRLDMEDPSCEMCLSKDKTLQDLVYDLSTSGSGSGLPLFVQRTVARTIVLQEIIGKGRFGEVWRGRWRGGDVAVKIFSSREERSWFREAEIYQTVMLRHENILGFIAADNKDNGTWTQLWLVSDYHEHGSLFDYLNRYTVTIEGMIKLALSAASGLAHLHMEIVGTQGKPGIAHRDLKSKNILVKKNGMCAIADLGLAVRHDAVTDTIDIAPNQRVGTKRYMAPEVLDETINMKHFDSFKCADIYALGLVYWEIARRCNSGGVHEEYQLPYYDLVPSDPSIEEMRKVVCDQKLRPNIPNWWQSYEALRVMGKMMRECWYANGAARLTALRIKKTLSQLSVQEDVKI
- test_protocol: Z'-LYTE kinase selectivity assay ACVR1B
- Type: biochemical
Overview of recorded inhibition at 1 µM for various molecules
Give your result in % as a bare value.

Use these answered entries as a reference point.
* COCCN1CCN(CCn2ccc(Nc3ncc4c(n3)-c3c(nn(C)c3-c3ccccc3)C[C@H]4C)n2)CC1 | -11
* C[C@@H]1Cc2nn(C)c(-c3ccccc3)c2-c2nc(Nc3ccn(CCN4CCOCC4)n3)ncc21 | 0
* C[C@@H]1Cc2nn(C)c(-c3ccccc3)c2-c2nc(Nc3ccn(CCN4CCN(C)CC4)n3)ncc21 | -10
* C[C@@H]1Cc2nn(C)c(-c3ccccc3)c2-c2nc(Nc3ccn(CCN4CCN(CC(=O)OC5CCOCC5)CC4)n3)ncc21 | -4
* C[C@@H]1Cc2nn(C)c(-c3ccccc3)c2-c2nc(Nc3ccn(CCN4CCN(CC5CCCO5)CC4)n3)ncc21 (stereo partly shown) | 7

Input: Tell me measured inhibition at 1 µM for CC(O)CN1CCN(CCn2ccc(Nc3ncc4c(n3)-c3c(nn(C)c3-c3ccccc3)C[C@H]4C)n2)CC1 (stereo partly shown) please.
Output: 0

Input: Tell me measured inhibition at 1 µM for C[C@@H]1Cc2nn(C)c(-c3ccccc3)c2-c2nc(Nc3ccn(CCN4CCN(CC(C)(C)O)CC4)n3)ncc21 please.
Output: 0

---

- target_entity: RAF1 (cRAF) Y340D Y341D (Homo sapiens, UniProt P04049, Y340D/Y341D)
- Construct: purchased Life Technologies PV 4046
- Sequence (P04049 306-648 Y340D/Y341D limits assumed): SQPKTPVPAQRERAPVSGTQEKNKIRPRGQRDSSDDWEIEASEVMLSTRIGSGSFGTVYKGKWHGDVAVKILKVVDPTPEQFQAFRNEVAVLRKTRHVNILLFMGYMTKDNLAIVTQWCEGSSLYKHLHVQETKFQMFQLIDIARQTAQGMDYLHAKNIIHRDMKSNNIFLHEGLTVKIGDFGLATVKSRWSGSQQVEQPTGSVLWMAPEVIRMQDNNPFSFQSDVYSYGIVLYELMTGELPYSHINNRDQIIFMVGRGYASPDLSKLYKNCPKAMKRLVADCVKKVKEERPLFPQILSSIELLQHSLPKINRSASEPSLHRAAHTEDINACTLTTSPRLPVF
- test_protocol: Z'-LYTE kinase selectivity assay RAF1
- Type: biochemical
- Source text: In order to compare the kinase selectivity of compounds (I) according to the invention with known prior art compounds the commercially provided SelectScreen® Kinase Profiling Service (Z′-LYTE®) was used (Life Technologies GmbH, Darmstadt, Germany) to investigate the ability of the compounds to inhibit a number of different, representatively selected human kinases. Further details regarding this service are available on the Life Technologies website at […]
Classification field: label 1 = inhibition at 1 µM at or over 30%; label 0 = inhibition at 1 µM under 30%.

Examples with answers:
* C[C@@H]1Cc2nn(C)c(-c3ccccc3)c2-c2nc(Nc3ccn(CCN4CCOCC4)n3)ncc21 | label 1
* C[C@@H]1Cc2nn(C)c(-c3ccccc3)c2-c2nc(Nc3ccn(CCN4CCN(CC5CCCO5)CC4)n3)ncc21 (stereo partly shown) | label 1
* COCCN1CCN(CCn2ccc(Nc3ncc4c(n3)-c3c(nn(C)c3-c3ccccc3)C[C@H]4C)n2)CC1 | label 0
* C[C@@H]1Cc2nn(C)c(-c3ccccc3)c2-c2nc(Nc3ccn(CCN4CCN(CC(=O)OC5CCOCC5)CC4)n3)ncc21 | label 0
* CC(O)CN1CCN(CCn2ccc(Nc3ncc4c(n3)-c3c(nn(C)c3-c3ccccc3)C[C@H]4C)n2)CC1 (stereo partly shown) | label 1
* C[C@@H]1Cc2nn(C)c(-c3ccccc3)c2-c2nc(Nc3ccn(CCN4CCN(CC(C)(C)O)CC4)n3)ncc21 | label 1

Input: hey, is inhibition at 1 µM for this one >= 30%? C[C@@H]1Cc2nn(C)c(-c3ccccc3)c2-c2nc(Nc3ccn(CCN4CCN(C)CC4)n3)ncc21
Output: label 0

---

- target_entity: ABL1 (Homo sapiens)
- Construct: purchased Life Technologies P3049
- Sequence (P00519 whole entry): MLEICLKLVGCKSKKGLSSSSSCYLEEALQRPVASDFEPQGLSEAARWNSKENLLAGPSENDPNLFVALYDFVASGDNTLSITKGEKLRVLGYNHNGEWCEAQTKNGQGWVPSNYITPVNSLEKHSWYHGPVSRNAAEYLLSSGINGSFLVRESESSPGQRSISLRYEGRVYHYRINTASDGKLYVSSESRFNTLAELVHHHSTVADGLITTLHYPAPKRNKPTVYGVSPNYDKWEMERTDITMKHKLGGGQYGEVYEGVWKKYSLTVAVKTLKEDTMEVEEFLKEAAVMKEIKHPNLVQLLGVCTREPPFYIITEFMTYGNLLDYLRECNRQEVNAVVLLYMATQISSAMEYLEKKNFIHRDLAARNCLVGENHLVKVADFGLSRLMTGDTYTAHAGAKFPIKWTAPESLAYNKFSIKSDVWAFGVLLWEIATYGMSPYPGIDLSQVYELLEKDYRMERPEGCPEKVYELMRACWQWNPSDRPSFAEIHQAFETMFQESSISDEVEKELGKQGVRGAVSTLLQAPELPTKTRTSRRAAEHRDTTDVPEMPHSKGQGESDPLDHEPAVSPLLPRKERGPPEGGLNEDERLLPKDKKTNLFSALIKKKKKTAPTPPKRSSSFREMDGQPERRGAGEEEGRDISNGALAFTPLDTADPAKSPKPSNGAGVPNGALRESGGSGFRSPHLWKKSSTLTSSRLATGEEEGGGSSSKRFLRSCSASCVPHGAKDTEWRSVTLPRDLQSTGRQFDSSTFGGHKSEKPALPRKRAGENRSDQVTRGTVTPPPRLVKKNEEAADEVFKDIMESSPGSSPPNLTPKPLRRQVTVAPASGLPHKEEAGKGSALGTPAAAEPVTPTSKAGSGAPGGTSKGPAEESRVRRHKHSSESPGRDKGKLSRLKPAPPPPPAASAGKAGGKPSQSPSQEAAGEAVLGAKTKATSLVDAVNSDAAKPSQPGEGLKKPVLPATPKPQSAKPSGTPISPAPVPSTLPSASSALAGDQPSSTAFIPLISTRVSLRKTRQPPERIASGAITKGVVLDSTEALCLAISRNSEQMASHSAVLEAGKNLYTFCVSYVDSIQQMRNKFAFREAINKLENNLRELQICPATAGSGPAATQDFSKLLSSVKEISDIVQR
- test_protocol: Z'-LYTE kinase selectivity assay ABL1
- Type: biochemical
Classification field: condition met = inhibition at 1 µM at or over 20%; condition not met = inhibition at 1 µM under 20%.

Examples with answers:
* C[C@@H]1Cc2nn(C)c(-c3ccccc3)c2-c2nc(Nc3ccn(CCN4CCOCC4)n3)ncc21 [Compound I-2] | condition not met
* C[C@@H]1Cc2nn(C)c(-c3ccccc3)c2-c2nc(Nc3ccn(CCN4CCN(CC(=O)OC5CCOCC5)CC4)n3)ncc21 [Compound I-8] | condition not met
* C[C@@H]1Cc2nn(C)c(-c3ccccc3)c2-c2nc(Nc3ccn(CCN4CCN(CC5CCCO5)CC4)n3)ncc21 (stereo partly shown) [Compound I-9] | condition not met

Input: hey, is inhibition at 1 µM for this one >= 20%? COCCN1CCN(CCn2ccc(Nc3ncc4c(n3)-c3c(nn(C)c3-c3ccccc3)C[C@H]4C)n2)CC1 [Compound I-11]
Output: condition not met

Input: hey, is inhibition at 1 µM for this one >= 20%? C[C@@H]1Cc2nn(C)c(-c3ccccc3)c2-c2nc(Nc3ccn(CCN4CCN(C)CC4)n3)ncc21 [Compound I-1]
Output: condition met

Input: hey, is inhibition at 1 µM for this one >= 20%? CC(O)CN1CCN(CCn2ccc(Nc3ncc4c(n3)-c3c(nn(C)c3-c3ccccc3)C[C@H]4C)n2)CC1 (stereo partly shown) [Compound I-7]
Output: condition met

Input: hey, is inhibition at 1 µM for this one >= 20%? C[C@@H]1Cc2nn(C)c(-c3ccccc3)c2-c2nc(Nc3ccn(CCN4CCN(CC(C)(C)O)CC4)n3)ncc21 [Compound I-3]
Output: condition met

---

Overview of recorded inhibition at 1 µM for various molecules
- target_entity: CHEK1 (CHK1) (Homo sapiens, UniProt O14757)
- Construct: purchased Life Technologies P 3040
- Sequence (O14757 whole entry): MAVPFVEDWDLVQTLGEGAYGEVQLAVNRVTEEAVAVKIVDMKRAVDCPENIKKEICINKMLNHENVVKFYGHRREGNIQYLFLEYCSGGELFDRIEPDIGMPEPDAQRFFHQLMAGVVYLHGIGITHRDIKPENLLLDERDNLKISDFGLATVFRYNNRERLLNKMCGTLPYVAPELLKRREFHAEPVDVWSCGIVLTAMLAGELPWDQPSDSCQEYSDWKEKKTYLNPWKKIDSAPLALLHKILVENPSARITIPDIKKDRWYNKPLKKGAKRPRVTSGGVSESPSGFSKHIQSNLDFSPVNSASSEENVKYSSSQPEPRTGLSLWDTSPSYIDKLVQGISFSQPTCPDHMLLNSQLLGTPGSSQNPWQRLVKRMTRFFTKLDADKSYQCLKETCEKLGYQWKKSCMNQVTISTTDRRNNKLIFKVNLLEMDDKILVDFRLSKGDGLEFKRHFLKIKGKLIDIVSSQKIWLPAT
- test_protocol: Z'-LYTE kinase selectivity assay CHEK1
- Format: biochemical

- COCCN1CCN(CCn2ccc(Nc3ncc4c(n3)-c3c(nn(C)c3-c3ccccc3)C[C@H]4C)n2)CC1: 25%

Input: Tell me measured inhibition at 1 µM for C[C@@H]1Cc2nn(C)c(-c3ccccc3)c2-c2nc(Nc3ccn(CCN4CCOCC4)n3)ncc21 please.
Output: 23%

Input: Tell me measured inhibition at 1 µM for C[C@@H]1Cc2nn(C)c(-c3ccccc3)c2-c2nc(Nc3ccn(CCN4CCN(CC5CCCO5)CC4)n3)ncc21 (stereo partly shown) please.
Output: 26%

Input: Tell me measured inhibition at 1 µM for C[C@@H]1Cc2nn(C)c(-c3ccccc3)c2-c2nc(Nc3ccn(CCN4CCN(C)CC4)n3)ncc21 please.
Output: 11%

Input: Tell me measured inhibition at 1 µM for CC(O)CN1CCN(CCn2ccc(Nc3ncc4c(n3)-c3c(nn(C)c3-c3ccccc3)C[C@H]4C)n2)CC1 (stereo partly shown) please.
Output: 38%

Input: Tell me measured inhibition at 1 µM for C[C@@H]1Cc2nn(C)c(-c3ccccc3)c2-c2nc(Nc3ccn(CCN4CCN(CC(C)(C)O)CC4)n3)ncc21 please.
Output: 31%

Input: Tell me measured inhibition at 1 µM for C[C@@H]1Cc2nn(C)c(-c3ccccc3)c2-c2nc(Nc3ccn(CCN4CCN(CC(=O)OC5CCOCC5)CC4)n3)ncc21 please.
Output: 17%

---

- target_entity: human IGF-1R (Homo sapiens)
- Construct: human IGF-1R (amino acids 964-1370) is expressed as a fusion protein
- Sequence (P08069 964-1367 limits assumed): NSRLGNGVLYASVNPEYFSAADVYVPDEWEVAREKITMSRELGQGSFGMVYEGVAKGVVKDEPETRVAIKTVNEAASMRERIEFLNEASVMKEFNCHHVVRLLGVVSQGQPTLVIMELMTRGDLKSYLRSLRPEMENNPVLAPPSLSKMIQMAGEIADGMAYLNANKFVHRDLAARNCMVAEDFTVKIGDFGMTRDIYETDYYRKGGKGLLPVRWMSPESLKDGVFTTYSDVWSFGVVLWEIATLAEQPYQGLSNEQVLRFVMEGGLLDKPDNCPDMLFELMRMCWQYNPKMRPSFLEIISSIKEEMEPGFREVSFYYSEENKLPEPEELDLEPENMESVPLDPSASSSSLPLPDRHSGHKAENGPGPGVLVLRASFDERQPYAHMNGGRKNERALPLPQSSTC
- test_protocol: Insulin-like growth factor-1 receptor (IGF-1R)-kinase assay (DELFIA)
- measurement_conditions: inhibition of IGF-1R-kinase activity
Overview of recorded IC50 for various compounds
Give your result in nM as a bare value.

Use these answered entries as a reference point.
* CC(C(=O)OC[C@H]1CCCN1)N1CCN(CCn2ccc(Nc3ncc4c(n3)-c3c(nn(C)c3-c3ccccc3)C[C@H]4C)n2)CC1 (some centres unmarked) [Compound I-4] | 1.5
* C[C@@H]1Cc2nn(C)c(-c3ccccc3)c2-c2nc(Nc3ccn(CCN4CCN(CC(=O)OC5CCOCC5)CC4)n3)ncc21 [Compound I-8] | 2.8
* C[C@@H]1Cc2nn(C)c(-c3ccccc3)c2-c2nc(Nc3ccn(CCN4CCN(CC(C)(C)O)C(=O)C4)n3)ncc21 [Compound I-5] | 4.8
* CC(O)CN1CCN(CCn2ccc(Nc3ncc4c(n3)-c3c(nn(C)c3-c3ccccc3)C[C@H]4C)n2)CC1 (some centres unmarked) [Compound I-7] | 1
* COCCN1CCN(CCn2ccc(Nc3ncc4c(n3)-c3c(nn(C)c3-c3ccccc3)C[C@H]4C)n2)CC1 [Compound I-11] | 0.9
* C[C@@H]1Cc2nn(C)c(-c3ccccc3)c2-c2nc(Nc3ccn(CCN4CCOCC4)n3)ncc21 [Compound I-2] | 1.3
* C[C@@H]1Cc2nn(C)c(-c3ccccc3)c2-c2nc(Nc3ccn(CCN4CCN(CC(=O)OC5CCOC5)CC4)n3)ncc21 (some centres unmarked) [Compound I-6] | 1.1
* C[C@@H]1Cc2nn(C)c(-c3ccccc3)c2-c2nc(Nc3ccn(CCN4CCN(C)CC4)n3)ncc21 [Compound I-1] | 0.9

Input: Print human IGF-1R (Homo sapiens) IC50 for C[C@@H]1Cc2nn(C)c(-c3ccccc3)c2-c2nc(Nc3ccn(CCN4CCN(CCO)CC4)n3)ncc21 [Compound I-10] .
Output: 2.2

Input: Print human IGF-1R (Homo sapiens) IC50 for C[C@@H]1Cc2nn(C)c(-c3ccccc3)c2-c2nc(Nc3ccn(CCN4CCN(CC5CCCO5)CC4)n3)ncc21 (some centres unmarked) [Compound I-9] .
Output: 1.2

Input: Print human IGF-1R (Homo sapiens) IC50 for C[C@@H]1Cc2nn(C)c(-c3ccccc3)c2-c2nc(Nc3ccn(CCN4CCN(CC(C)(C)O)CC4)n3)ncc21 [Compound I-3] .
Output: 1.9
